- Procedure Text: yeast display, Sf9 membrane polyspecificity reagent, FACS + sequencing; frameworks hold sequencing errors
Readout Type: polyreactivity (PSR sort gate)

INSERT INTO measurements (sequence_data, readout_type, reported) VALUES
  ('QVQLVESGGGLVQAGGSLRLSCAASGSTLNSYVMGWYRQAPGKERELVATIRSGSSTNYADSVKGRFTISLDNAKNTVYLQMNSLKPVDTAVYYCSRDDRLAGDYWGQGTQVTVSS', 'polyreactivity (PSR sort gate)', 'low polyreactivity'),
  ('QVQLVESVGGLVQAGGSLRLSSAASGRTFYFYTMGWYTQAPGKERELVATIRWSAGSTYYADSVKGRFTISRDNAKNTVYLQMNSLKPEDTAVYYCNADPYVYSSWQYGYWGQGTQVTVSS', 'polyreactivity (PSR sort gate)', 'high polyreactivity'),
  ('QVQLVESGGGLVQAGGSLRLSCAASGSTFRGNAMGWYRQAPGKERELVAAITGRGGRTYYADSVKGRFTISRDNAKNTVYLQMNSLKPEDTAVYYCAAYSRYKPYGITAYDYWGQGTQVTVSS', 'polyreactivity (PSR sort gate)', 'high polyreactivity'),
  ('QVQLVESGVGLVQAGGSLRLSCAASGRIFDGYDMGWYRQAPGKERELVAAITSVGSTNYADSVKGRFTISRDNAKNTVYLQMNSLKPEDTAVYYCAAVLYVFYDEYGYWEYFSQYDYWGQGTQVTVSS', 'polyreactivity (PSR sort gate)', 'low polyreactivity'),
  ('QVQLVESGGGLVQAGGSLRLSCAASGSILYRYTMGWYRLAPGTERELVAAITKRGGRTYYADSVKGRITISRDNAMNTVYLQMNSLKPEDTAVFYCYALLTGGYQDSYPDDYWGQGTHVTVSS', 'polyreactivity (PSR sort gate)', 'high polyreactivity');

Q. What value of polyreactivity (PSR sort gate) has been reported for the following sequence? "QVQLVESGGGLVQAGGSLRLSCAASGRIFNRNAMGWYRQPPGKERELVAAISWSGTRTYYADSVKGRFTISRDNAKNTVYLQMNSLKPEDTAVYYCAAGASLYSYYGFLPYDYWGQGTQVTVSS"
A. high polyreactivity

Q. Item under review: "QVQLVESGGGLVQAGGSLRLSCAASGRTFSGYTMGWYRQAPGKERELVAGISRSGGRTYYADSVKGRFTISRDNAKKTVYLQMNSLKPEDTAVYYCATPYRRLNTWIYDYWGQGTQVTVSS" . Reported polyreactivity (PSR sort gate)?
A. high polyreactivity

Q. So what does the record say about polyreactivity (PSR sort gate) for "QVQLVESGGGLVHAGGSLRLSCSASGFTFYKYAMGWYRQAPGKERELVAAFSYSGGSTYYADSVKGRFTISRDNAKNTVYLQMNSLKPEDTAVYYCAARVRGTGYNSWGQGTLVTVSS" ?
A. high polyreactivity

----------
- Procedure Text: yeast display, Sf9 membrane polyspecificity reagent, FACS + sequencing; frameworks hold sequencing errors
Readout Type: polyreactivity (PSR sort gate)

The examples below pair each entry with its known result.
INSERT INTO assay_data (sequence_data, readout_type, reported) VALUES
  ('QVQLVESGGGLVQAGGSLRLRCAASGSIFISYAMGWYRQAPGKERELVAAISIRGTRTFYADSVKGRFTISRDNAKNTVYLQMNSLKPEDTAVYYCAARAPWPKWGYYYWGQGTQVTVSS', 'polyreactivity (PSR sort gate)', 'high polyreactivity'),
  ('QVQLVESCGGLVQAGGSLRLSCAASGFIFTYYVMGWYRQAPGKERELVATISISDGTTYADSVKGRFTISRDNAKNTVYLQMNSLKPEDTAVYYCAADNSFTDNYWGQGTQVTVSS', 'polyreactivity (PSR sort gate)', 'low polyreactivity'),
  ('QVQLVESGGGLVQAGGSLRLSCAASGSIFREYVMGWYRQAPGKEREFVAAISVSGGSTNYADSVKGRFTISRDNAKNTVYLQMNSLKPEDTAVYYCNADGVLTGYSRGGWYYWGQGTQVTVSS', 'polyreactivity (PSR sort gate)', 'low polyreactivity'),
  ('QVQLVESGGGLVQAGGSLRLSCAASGGIFRDYAMGWSRQAPGKERELVAAISRSGDSTYYADSVKGRFTISRDNAKNTVYLQMNSLKPEDTAVYSCAADWLWAWHYYGAMDYWGQGTQVTVSS', 'polyreactivity (PSR sort gate)', 'high polyreactivity'),
  ('QVQLVESGGGLVQAGGSLRLSCAASGSTFPYYAMGWYRQAPGKERELVAAISRRGGSTYYADSVKGRFTISRDNAKNTVYLQMNSLKPEDTAVYYCAAGYYPSSSGDDYWGQGTQVTVSS', 'polyreactivity (PSR sort gate)', 'high polyreactivity'),
  ('QVQLVESGGGLVQAGGSLRLSCAASGSIFSSYAMGWYRQAPGKERELVAAISQSGGDTYYADSVKGRFTISRDNAKYTVYLQMNSLKPDDTAVYYCAASVWYFPMDYWGQGTQLTVSS', 'polyreactivity (PSR sort gate)', 'low polyreactivity'),
  ('QVQLVESGGGLVQAGGSLRLSWAASGSILLGYAMGWYRQAPGKERELVAAISRNGGSTYYADSVKGRFTISRDNAKNTVYLQMNSLKPEDTAVYYCNKYSGYKGTDGGDYWGQGTQVTVSS', 'polyreactivity (PSR sort gate)', 'low polyreactivity'),
  ('QVQLVESGGGLVQAGGSLRLSCAASGNTFWRYAMGWYRQAPGKERELVAAITYTSGSTYYADSVKGRFTISRDNAKNTVYLQMNSLKPEDTAVYYCAAESVYGSGYVFRYYYWGQGTQVSVSS', 'polyreactivity (PSR sort gate)', 'high polyreactivity'),
  ('QVQLVESGGGLVQAGGSLRLSCAASGRIFVPYAMGWYRQAPGKERELVAVISRGGSTYYADSVKGRFTISRDNAKNTVYLQMNSLKPEDTAVYYCAARGVNRQGFNYWGQGTQVTVSS', 'polyreactivity (PSR sort gate)', 'high polyreactivity'),
  ('QVQLVESGGGLVQAGGCLRLSCASSGRTFHLYAMGWYRQAPGKERELVAAITWSSGRTYYSDSVKGRFTISRDNAKNTVYVQMKSLKPEDTAVFYCAADVWGGLLPGYDYWGQGTQVTVSS', 'polyreactivity (PSR sort gate)', 'high polyreactivity');

// below: polyreactivity (PSR sort gate) requested for another sequence
Q. May I ask what polyreactivity (PSR sort gate) has been recorded for "QVQLVESGGGLVQAGGSLRLSCAASGLTFYLYAMGWYRQAPGKERELVAAISSSGSSTYYADSVKGRFTISRDNAKHTVYLQMNSLKPEDTAVYYCAAVASRGWGRYGYWGQGTQVTVSS" ?
A. high polyreactivity
